List of IC50 tested on PIK3CD (Human) (UniProt O00329).
Sequence (O00329 whole entry, looked up): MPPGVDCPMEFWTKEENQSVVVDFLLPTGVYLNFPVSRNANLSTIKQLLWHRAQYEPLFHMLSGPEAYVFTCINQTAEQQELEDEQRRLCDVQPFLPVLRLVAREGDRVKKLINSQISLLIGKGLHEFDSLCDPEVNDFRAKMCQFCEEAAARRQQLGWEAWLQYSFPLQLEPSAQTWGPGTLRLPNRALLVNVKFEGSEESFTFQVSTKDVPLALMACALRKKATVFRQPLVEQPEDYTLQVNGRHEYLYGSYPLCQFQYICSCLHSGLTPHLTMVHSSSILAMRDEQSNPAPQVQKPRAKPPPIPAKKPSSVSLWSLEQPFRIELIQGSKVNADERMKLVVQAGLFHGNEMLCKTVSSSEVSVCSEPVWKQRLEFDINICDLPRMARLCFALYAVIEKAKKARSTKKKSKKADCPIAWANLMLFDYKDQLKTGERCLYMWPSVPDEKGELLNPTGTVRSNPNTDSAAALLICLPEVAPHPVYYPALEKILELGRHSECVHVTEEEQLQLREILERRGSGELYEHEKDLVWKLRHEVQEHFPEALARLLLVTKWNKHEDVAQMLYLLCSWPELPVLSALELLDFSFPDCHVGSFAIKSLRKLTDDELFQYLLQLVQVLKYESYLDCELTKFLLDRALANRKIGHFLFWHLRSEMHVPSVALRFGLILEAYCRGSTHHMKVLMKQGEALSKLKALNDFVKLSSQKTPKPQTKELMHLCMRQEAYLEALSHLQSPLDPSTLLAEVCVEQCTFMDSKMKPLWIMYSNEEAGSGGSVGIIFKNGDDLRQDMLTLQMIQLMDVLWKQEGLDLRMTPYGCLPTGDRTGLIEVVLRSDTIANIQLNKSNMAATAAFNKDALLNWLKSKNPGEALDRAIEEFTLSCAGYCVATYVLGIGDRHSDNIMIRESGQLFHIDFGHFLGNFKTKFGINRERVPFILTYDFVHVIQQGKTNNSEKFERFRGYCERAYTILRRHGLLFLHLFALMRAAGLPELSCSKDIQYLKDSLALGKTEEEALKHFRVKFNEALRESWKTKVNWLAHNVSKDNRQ
REPORTED PROPERTY: IC50

COMPOUND | TEST SYSTEM | REPORTED PROPERTY | RESULT
OC1(Cc2ccccn2)CCN(Cc2cc3nc(-c4cccc5[nH]ncc45)nc(N4CCOCC4)c3s2)CC1 | PIK3CD (Human) (UniProt O00329) | IC50 | ≤ 100 nM
OCC1CCN(Cc2cc3nc(-c4cccc5[nH]ncc45)nc(N4CCOCC4)c3s2)CC1 | PIK3CD (Human) (UniProt O00329) | IC50 | ≤ 100 nM
CN(C)C1CCN(Cc2cc3nc(-c4cccc5[nH]ccc45)nc(N4CCOCC4)c3s2)CC1 | PIK3CD (Human) (UniProt O00329) | IC50 | ≤ 100 nM
COCCN(Cc1nccs1)C1CCN(Cc2cc3nc(-c4cccc5[nH]ncc45)nc(N4CCOCC4)c3s2)CC1 | PIK3CD (Human) (UniProt O00329) | IC50 | ≤ 100 nM
OCC1CCCN(Cc2cc3nc(-c4cccc5[nH]ncc45)nc(N4CCOCC4)c3s2)C1 (stereo not given) | PIK3CD (Human) (UniProt O00329) | IC50 | ≤ 100 nM
COCC(=O)N(C)C1CCN(Cc2cc3nc(-c4cccc5[nH]ncc45)nc(N4CCOCC4)c3s2)CC1 | PIK3CD (Human) (UniProt O00329) | IC50 | ≤ 100 nM
CN(C1CCN(Cc2cc3nc(-c4cccc5[nH]ncc45)nc(N4CCOCC4)c3s2)CC1)S(C)(=O)=O | PIK3CD (Human) (UniProt O00329) | IC50 | ≤ 100 nM
COCCN(C(C)C)C1CCN(Cc2cc3nc(-c4cccc5[nH]ncc45)nc(N4CCOCC4)c3s2)CC1 | PIK3CD (Human) (UniProt O00329) | IC50 | ≤ 100 nM
c1cc(-c2nc(N3CCOCC3)c3sc(CN4CCN(Cc5ncc[nH]5)CC4)cc3n2)c2cn[nH]c2c1 | PIK3CD (Human) (UniProt O00329) | IC50 | ≤ 100 nM
COCCN(CC(F)(F)F)C1CCN(Cc2cc3nc(-c4cccc5[nH]ncc45)nc(N4CCOCC4)c3s2)CC1 | PIK3CD (Human) (UniProt O00329) | IC50 | ≤ 100 nM
c1ccc(N2CCN(Cc3cc4nc(-c5cccc6[nH]ncc56)nc(N5CCOCC5)c4s3)CC2)nc1 | PIK3CD (Human) (UniProt O00329) | IC50 | ≤ 100 nM
c1cc(-c2nc(N3CCOCC3)c3sc(CN4CCC(N5CCOCC5)CC4)cc3n2)c2cc[nH]c2c1 | PIK3CD (Human) (UniProt O00329) | IC50 | ≤ 100 nM
COCCN(C1CCN(Cc2cc3nc(-c4cccc5[nH]ncc45)nc(N4CCOCC4)c3s2)CC1)S(C)(=O)=O | PIK3CD (Human) (UniProt O00329) | IC50 | ≤ 100 nM
CN1CCN(Cc2cc3nc(-c4cccc5[nH]ncc45)nc(N4CCOCC4)c3s2)CC1 | PIK3CD (Human) (UniProt O00329) | IC50 | ≤ 100 nM
c1cc(-c2nc(N3CCOCC3)c3sc(CN4CCC(N5CCOCC5)CC4)cc3n2)c2cn[nH]c2c1 | PIK3CD (Human) (UniProt O00329) | IC50 | ≤ 100 nM
c1cc(-c2nc(N3CCOCC3)c3sc(CN4CCNCC4)cc3n2)c2cc[nH]c2c1 | PIK3CD (Human) (UniProt O00329) | IC50 | ≤ 100 nM
COCCN1CCN(Cc2cc3nc(-c4cccc5[nH]ncc45)nc(N4CCOCC4)c3s2)CC1 | PIK3CD (Human) (UniProt O00329) | IC50 | ≤ 100 nM
c1ccc(OC2CCN(Cc3cc4nc(-c5cccc6[nH]ncc56)nc(N5CCOCC5)c4s3)CC2)nc1 | PIK3CD (Human) (UniProt O00329) | IC50 | ≤ 100 nM
C[C@@H]1CN(Cc2cc3nc(-c4cccc5[nH]ncc45)nc(N4CCOCC4)c3s2)C[C@H](C)N1Cc1ccccn1 | PIK3CD (Human) (UniProt O00329) | IC50 | ≤ 100 nM
CNC(=O)C1CCN(Cc2cc3nc(-c4cccc5[nH]ncc45)nc(N4CCOCC4)c3s2)CC1 | PIK3CD (Human) (UniProt O00329) | IC50 | ≤ 100 nM
[O-][n+]1ccccc1CN1CCN(Cc2cc3nc(-c4cccc5[nH]ncc45)nc(N4CCOCC4)c3s2)CC1 | PIK3CD (Human) (UniProt O00329) | IC50 | ≤ 100 nM
c1cc(-c2nc(N3CCOCC3)c3sc(CN4CCN(Cc5nccs5)CC4)cc3n2)c2cn[nH]c2c1 | PIK3CD (Human) (UniProt O00329) | IC50 | ≤ 100 nM
c1cc(-c2nc(N3CCOCC3)c3sc(CN4CCN(Cc5cscn5)CC4)cc3n2)c2cn[nH]c2c1 | PIK3CD (Human) (UniProt O00329) | IC50 | ≤ 100 nM
Cc1csc(CN2CCN(Cc3cc4nc(-c5cccc6[nH]ncc56)nc(N5CCOCC5)c4s3)CC2)n1 | PIK3CD (Human) (UniProt O00329) | IC50 | ≤ 100 nM
Cc1ccc(CN2CCN(Cc3cc4nc(-c5cccc6[nH]ncc56)nc(N5CCOCC5)c4s3)CC2)o1 | PIK3CD (Human) (UniProt O00329) | IC50 | ≤ 100 nM
FC(F)(F)CN1CCN(Cc2cc3nc(-c4cccc5[nH]ncc45)nc(N4CCOCC4)c3s2)CC1 | PIK3CD (Human) (UniProt O00329) | IC50 | ≤ 100 nM
c1cncc(CN2CCN(Cc3cc4nc(-c5cccc6[nH]ncc56)nc(N5CCOCC5)c4s3)CC2)c1 | PIK3CD (Human) (UniProt O00329) | IC50 | ≤ 100 nM
COCCN(CC1CC1)C1CCN(Cc2cc3nc(-c4cccc5[nH]ncc45)nc(N4CCOCC4)c3s2)CC1 | PIK3CD (Human) (UniProt O00329) | IC50 | ≤ 100 nM
CN1CCN(Cc2cc3nc(-c4cccc5nn(C)cc45)nc(N4CCOCC4)c3s2)CC1 | PIK3CD (Human) (UniProt O00329) | IC50 | ≤ 100 nM
CN1CCN(Cc2cc3nc(-c4cccc5c4cnn5C)nc(N4CCOCC4)c3s2)CC1 | PIK3CD (Human) (UniProt O00329) | IC50 | ≤ 100 nM
O=C(N1CCOCC1)N1CCN(Cc2cc3nc(-c4cccc5[nH]ccc45)nc(N4CCOCC4)c3s2)CC1 | PIK3CD (Human) (UniProt O00329) | IC50 | ≤ 100 nM
OC(COc1ccccc1)CN1CCN(Cc2cc3nc(-c4cccc5[nH]ncc45)nc(N4CCOCC4)c3s2)CC1 (stereo not given) | PIK3CD (Human) (UniProt O00329) | IC50 | ≤ 100 nM
NC(=O)C1CCN(Cc2cc3nc(-c4cccc5[nH]ncc45)nc(N4CCOCC4)c3s2)CC1 | PIK3CD (Human) (UniProt O00329) | IC50 | ≤ 100 nM
OC1(c2nccs2)CCN(Cc2cc3nc(-c4cccc5[nH]ncc45)nc(N4CCOCC4)c3s2)CC1 | PIK3CD (Human) (UniProt O00329) | IC50 | ≤ 100 nM
CC1CCCN(Cc2cc3nc(-c4cccc5[nH]ncc45)nc(N4CCOCC4)c3s2)C1 (stereo not given) | PIK3CD (Human) (UniProt O00329) | IC50 | ≤ 100 nM

Origin of measurements: the Kinase Knowledgebase extract (Sharma et al. 2016)
